Test system: UO-31 renal
assay procedure: NCI tumour cell line growth inhibition, 48 h
reported property: TGI

{"compound": "CC1=NN(C(=O)CC(=O)Nc2ccccc2Cl)C(=O)C1N=Nc1ccc(S(=O)(=O)c2ccc(N=NC3C(=O)N(C(=O)CC(=O)Nc4ccccc4Cl)N=C3C)cc2)cc1 (stereo not given)", "recorded value": "> 100 µM"}
{"compound": "Cc1cc2cc3ccc(N(C)C)cc3nc2cc1N", "recorded value": "5.01 µM"}
{"compound": "COc1ccc2c(C3(c4cn(C)c5cc(OC)ccc45)C(=O)Nc4ccc(Cl)cc43)cn(C)c2c1", "recorded value": "> 100 µM"}
{"compound": "CC(=O)c1c(CN(C)c2ccccc2)n([O-])c2ccccc2[n+]1=O", "recorded value": "> 100 µM"}
{"compound": "CC(=O)OC1=CC2=CC[C@H]3[C@@H]4CCC(=O)[C@@]4(C)CC(=O)[C@]3(S)[C@@]2(C)CC1", "recorded value": "> 100 µM"}

Switching to the query record.
Challenge: Which TGI value belongs to `O=c1sc2c(s1)-c1sc(=O)sc1SS2` ?
Response given: > 100 µM
